Assay: NCI Yeast Anticancer Drug Screen. Data for the mlh1 rad18 strain (AID 175)
Conditions: S. cerevisiae mlh1 rad18 strain growth inhibition, active compounds read high; at 50.0 µM unless noted
About 79,000 compounds went through this panel and 15% of them were active in at least one assay; those are over-represented in the sample as a whole. Calls of active or inactive are those of the source. No stated cut-off is given here; in the data, active means growth inhibition above about 70%; inactive means the rest.
Provide the reported growth inhibition of each item.

# map each compound to its growth inhibition
1. COc1cc([N+](=O)[O-])c(S(=O)(=O)O)cc1NS(=O)(=O)c1ccc(C)cc1
2. COc1ccc(N2C(=O)C/C(=C/c3ccc(C(C)C)cc3)C2=O)cc1

Response:
10.2% (inactive)
9.15% (inactive)
